- Tested on: ATP;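 further: ATP exposure 15 min at 22 °C before imaging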
- assay overview: switch fluorescence ratio, 500 uM ATP over buffer (Cy3 cluster intensity, sum of 5 cycles each) (fold (ratio)); higher = stronger signal-on switching upon ATP binding; sequences stand for … in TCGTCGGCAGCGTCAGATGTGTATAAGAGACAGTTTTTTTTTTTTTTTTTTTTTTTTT…TC
- condition description: aptamer strand: ATP DNA aptamer (quencher-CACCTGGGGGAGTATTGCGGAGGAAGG + anchor), 100 nM annealed; ATP concentration: 500 uM

{"columns": ["biopolymer sequence", "switch fluorescence ratio"],
 "data": [
  ["ATCAGAACAA", 1.01],
  ["TTTACTGGGG", 1.01],
  ["TAGGCTTATG", 0.979],
  ["GAGGTGAAGA", 0.979],
  ["TGTCAGTCGA", 1],
  ["ATCGTAGGTC", 0.982],
  ["GTGGTCGATG", 0.953],
  ["CATTGGGGAG", 1.01],
  ["AAAGAAAGC", 1.02],
  ["TGGCGGGTTA", 0.988],
  ["GTTTTTTTT", 1.05],
  ["AGAGGTATAC", 0.969],
  ["TTTGCAGGGT", 1.03],
  ["AGGGCAGCGG", 1.03],
  ["AGTACAGGGT", 0.99]
]}
